# credit: patent US20260102487A1

Target: T1, IL2RB, Cyno (Macaca fascicularis, UniProt Q38J85)
T1 construct: Same protein as m18, but here as recombinant protein in solution, not on CHO cells; also called cynomolgus IL-2RB (Sino Biological)
T1 sequence (receptor chain, looked up): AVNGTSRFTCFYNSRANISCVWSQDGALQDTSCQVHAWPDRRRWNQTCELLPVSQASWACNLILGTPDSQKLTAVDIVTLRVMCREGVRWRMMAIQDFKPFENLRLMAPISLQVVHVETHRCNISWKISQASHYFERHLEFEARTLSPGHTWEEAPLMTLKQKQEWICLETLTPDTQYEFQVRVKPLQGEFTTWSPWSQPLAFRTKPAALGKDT
Experiment: biolayer interferometry (Octet Qk384), antibody captured on anti-human Fc (AHC) sensors, antigen 7.8-500 nM in solution, 1:1 fit, KD = kd/ka
parameterMeasured: pKd
Please express pKd as -log10 of the molar concentration.

BsAb-1 (IL2RB_F09C**IL2RG_F16A) (bispecific antibody, human IgG4, V domains shown, Heavy chain-only bispecific on silenced, stabilised human IgG4 Fc, knobs-into-holes, no light chains; not shown: C-terminal His-tag on the knob chain) V domain 1: QVQLQESGPGLVKPSGTLSLTCAVSGGSISSSDWWSWVRQPPGKGLEWIGEIDHSGSTNYNPSLMSRVTISVDKSKNQFSLKLSSVTAADTAVYFCGRGSWELSDAFDIRGQGTLVTVSS V domain 2: QVQLVESGGGLVKPGGSLRLSCAASGFTFSDYYMSWIRQAPGKGLEWVSSISSSGDTIYYADSVQGRFTLSRDNAENSLFLQMNSLRAEDTAVYYCARGDAVSITGDYRGQGTLVTVSS ... 7.97
BsAb-5 (IL2RB_F09K**IL2RG_F16B) (bispecific antibody, human IgG4, V domains shown, Heavy chain-only bispecific on silenced, stabilised human IgG4 Fc, knobs-into-holes, no light chains; not shown: C-terminal His-tag on the knob chain) V domain 1: QVQLQESSPGLVKPSETLSLTCTVSGGSISSSNWWSWVRQPPGKGLEWIGEISHSGSTNYNPSLKSRVTISVDKSKNQFSLRLSSVTAADTAVYFCGRGSWELTDAFDIRGQGTLVTVSS V domain 2: QVQLVESGGGLVKPGGSLRLSCAASGFTFSDYYMSWIRQAPGKGLEWVSYISSSGSTIYYADSVKGRFTISRDNAKNSLYLQMNSLRAEDTAVYYCARGDAVSITGDYRGQGTLVTVSS ... 7.78

Q) Dear colleague, I am looking for the recorded pKd of the following binder: BsAb-6 (IL2RB_F18E**IL2RG_F16A) (bispecific antibody, human IgG4, V domains shown, Heavy chain-only bispecific on silenced, stabilised human IgG4 Fc, knobs-into-holes, no light chains; not shown: C-terminal His-tag on the knob chain) V domain 1: QVQLVESGGGVVQPGRSLRLSCAASGFTFSSYGMHWVRQAPGKEREWVAVISYDGSNKYYTDSVKGRFTISRDNSKNTLYLEMNSLRAEDTAVYYCARDLDYDVLTGDPVGGFDIWGQGTLVTVSS V domain 2: QVQLVESGGGLVKPGGSLRLSCAASGFTFSDYYMSWIRQAPGKGLEWVSSISSSGDTIYYADSVQGRFTLSRDNAENSLFLQMNSLRAEDTAVYYCARGDAVSITGDYRGQGTLVTVSS
A) 7.26

Q) Quick one: BsAb-3 (IL2RB_F09G**IL2RG_F16C) (bispecific antibody, human IgG4, V domains shown, Heavy chain-only bispecific on silenced, stabilised human IgG4 Fc, knobs-into-holes, no light chains; not shown: C-terminal His-tag on the knob chain) V domain 1: QVQLQESGPGLVKSSETLSLTCTVSGGSISSSDWWSWVRQPPGKGLEWIGEIDHSGSTNYNPSLMSRVTISVDKSKNQFSLKLSSVTAADTAVYFCARGSWELTDAFDIRGQGTLVTVSS V domain 2: QVQLVESGGGLVKPGGSLRLSCAASGFTFNDYYMSWIRQAPGKGLEWVSHISSSGSTIYYADSVKGRFTVSRDNANNSLYLQMHSLRAEDTAVYYCARGDAVSITGDYRGQGTLVTVSS
A) 7.80

Q) Quick one: BsAb-2 (IL2RB_F09G**IL2RG_F16B) (bispecific antibody, human IgG4, V domains shown, Heavy chain-only bispecific on silenced, stabilised human IgG4 Fc, knobs-into-holes, no light chains; not shown: C-terminal His-tag on the knob chain) V domain 1: QVQLQESGPGLVKSSETLSLTCTVSGGSISSSDWWSWVRQPPGKGLEWIGEIDHSGSTNYNPSLMSRVTISVDKSKNQFSLKLSSVTAADTAVYFCARGSWELTDAFDIRGQGTLVTVSS V domain 2: QVQLVESGGGLVKPGGSLRLSCAASGFTFSDYYMSWIRQAPGKGLEWVSYISSSGSTIYYADSVKGRFTISRDNAKNSLYLQMNSLRAEDTAVYYCARGDAVSITGDYRGQGTLVTVSS
A) 7.78

Q) Quick one: BsAb-4 (IL2RB_F09G**IL2RG_F18A) (bispecific antibody, human IgG4, V domains shown, Heavy chain-only bispecific on silenced, stabilised human IgG4 Fc, knobs-into-holes, no light chains; not shown: C-terminal His-tag on the knob chain) V domain 1: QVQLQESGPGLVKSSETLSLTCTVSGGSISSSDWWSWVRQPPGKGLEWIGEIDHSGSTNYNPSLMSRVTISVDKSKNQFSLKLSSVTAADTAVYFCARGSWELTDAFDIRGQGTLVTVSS V domain 2: QVQLVESGGDLVKPGGSLRLSCAASGFTFSDYYMSWLRQAPGKELEWVSHISSSGTTTYYADSVEGRFTITRDNAKNSLYLQMNSLRAEDTAVYYCARGAAVAPGFDSRGQGTLVTVSS
A) 7.76
